# measured_on: Protein kinase C gamma type (Homo sapiens, UniProt P05129)
# IC50 listing for each entry below

Field: example entries. Status: answers known.
| molecule | measured_on | IC50 |
| --- | --- | --- |
| O=C1NC(=O)C2=C1c1cn(c3ccccc13)CCOCCOCCOCCn1cc2c2cccnc21 [INDOLYLYLMALEIMIDE 1] | Protein kinase C gamma type (Homo sapiens, UniProt P05129) | 1340 nM |
| O=C1NC(=O)C2=C1c1cn(c3ncccc13)CCOCCOCCOCCOCCn1cc2c2cccnc21 | Protein kinase C gamma type (Homo sapiens, UniProt P05129) | > 10000 nM |
| O=C1NC(=O)C2=C1c1cn(c3ccccc13)CCOCCOCCn1cc2c2ccccc21 | Protein kinase C gamma type (Homo sapiens, UniProt P05129) | 2730 nM |
| O=C1NC(=O)C2=C1c1cn(c3ccccc13)CCOCCOCCOCCOCCn1cc2c2ccccc21 | Protein kinase C gamma type (Homo sapiens, UniProt P05129) | 3300 nM |

Let us examine a further case.
Ask: Enter recorded IC50 with Protein kinase C gamma type (Homo sapiens, UniProt P05129) for O=C1NC(=O)C2=C1c1cn(c3ccccc13)CCOCCOCCOCCn1cc2c2ccccc21 [INDOLYLYLMALEIMIDE 2] here.
Result: 1200 nM
